# Tested on: COLO 205
# MEASUREMENT NOTES: NCI tumour cell line growth inhibition, 48 h
The source made the active and inactive calls. Cut-off read from the data, not from the text of the source: active = GI50 up to about 1.1 µM and inactive = higher.
Classes used: Yes for active, No for inactive

# COMPOUND, LABEL CLASS
measured = [
    ("CSc1nc(SC)c2c(C(N)=S)n[nH]c2n1", "No"),
    ("O=C1CC(NC(=O)C(F)(F)F)c2c(Br)sc(N3CCC(c4ccccc4)CC3)c21 (stereo not drawn)", "No"),
    ("CCCCN(CCCC)CC(=O)c1ccc2cc(Cl)c3ccccc3c2c1", "No"),
    ("Brc1ccc(CCNCCN2CCCCC2)cc1", "No"),
    ("COc1ccc2c(ccc3c(C(=O)NCCCN(C)CCCNC(=O)c4cn(C)c5c4ccc4cc(OC)ccc45)cn(C)c32)c1", "No"),
    ("CCOC(=O)/C=C(/C(=O)OCC)n1ccc(=O)n(/C(=C/C(=O)OCC)C(=O)OCC)c1=O", "No"),
    ("CC(C)(C)c1cc2c(OC/C=C/c3ccccc3)c(c1)Cc1cc(C(C#N)(OC/C=C/c3ccccc3)OC/C=C/c3ccccc3)cc(c1OC/C=C\\c1ccccc1)Cc1cc(C(C)(C)C)cc(c1OC/C=C/c1ccccc1)Cc1cc(C(C#N)(OC/C=C\\c3ccccc3)OC/C=C/c3ccccc3)cc(c1OC/C=C\\c1ccccc1)C2 (stereo not drawn)", "No"),
    ("CC(=O)Oc1ccc(-c2cc3ccccc3oc2=O)cc1OC(C)=O", "No"),
    ("NCCOCC(N)C(=O)O (stereo not drawn)", "No"),
    ("COc1c(C)c(C/C=C(\\C)CC/C=C(\\C)CCC=C(C)C)c(OC)c(OC)c1OC", "No"),
    ("CN1N=C(c2ccccc2)c2cc(Cl)ccc2N=C1N/N=C/c1ccc(N(C)C)cc1", "No"),
    ("O=C1C(Cl)=C(Nc2ccc(S(=O)(=O)O)cc2)C(=O)c2ccccc21", "No"),
    ("O=C1/C(=C\\c2cccc(Oc3ccccc3)c2)SC(c2ccccc2)N1c1cccc(Cl)c1 (stereo not drawn)", "No"),
    ("C=CC1ON(Cc2ccccc2)CCc2cc(OC)c(OC)cc21 (stereo not drawn)", "No"),
    ("CC12CCC(C1)C(C)(C)C2OC(=O)c1ccccc1C(=O)O (stereo not drawn)", "No"),
    ("C1CSCCSCSCCS1", "No"),
    ("O=C(CC1(O)C(=O)Nc2c(Cl)cc(Cl)cc21)c1ccc([N+](=O)[O-])cc1 (stereo not drawn)", "No"),
    ("CC1CSc2nc3nc(S)nc-3c(O)n2C1 (stereo not drawn)", "No"),
    ("Cn1c(N/N=C/c2ccccc2)nc(-c2ccc([N+](=O)[O-])cc2)c(C#N)c1=O", "No"),
    ("CC(=O)c1cc(S(=O)(=O)c2ccc(O)c(C(C)=O)c2)ccc1O", "No"),
    ("O=C1C=CC(=O)c2cc(Sc3ccccc3)c(=O)ccc21", "No"),
    ("CCOC(=O)C1(O)C(=O)C2=C3C(=O)OC(C4OC(=O)c5c(c(O)c(O)c(O)c5C31)-c1c(cc(O)c(O)c1O)C(=O)OC1COC(=O)c3cc(O)c(O)c(O)c3-c3c(cc(O)c(O)c3O)C(=O)OC14)[C@@H]2O (stereo partly drawn)", "No"),
    ("NC1=C(c2nc(-c3ccccc3)cs2)C(c2ccco2)c2c(c3ccccc3oc2=O)O1 (stereo not drawn)", "No"),
    ("ClCCCCOC1CCCCO1 (stereo not drawn)", "No"),
    ("C/C=C(\\CCOS(=O)(=O)c1ccc(C)cc1)[Si](C)(C)C", "No"),
    ("O=C1C(c2ccc([N+](=O)[O-])cc2)=[N+]([O-])c2ccccc21", "No"),
    ("COc1ccc(C2CC(=O)Oc3ccccc3O2)cc1 (stereo not drawn)", "No"),
    ("CC(C)=CCC/C(C)=C/C=C/C(C)=C/C1C[C@@]2(C(O)O1)[C@H](CCCO)/C(=C(/C)C=O)CC[C@]2(C)O (stereo partly drawn)", "Yes"),
    ("COc1ccccc1-n1c(N)c2c(C)c(-c3ccccc3)[nH]c2nc1=S", "No"),
    ("COC(=O)[C@H](CNC(=O)/C=C/c1ccc(OC(C)=O)c(OC(C)=O)c1)NC(=O)/C=C/c1ccc(OC(C)=O)c(OC(C)=O)c1", "No"),
    ("COc1ccc(-c2cc(-c3cc(F)c(Cl)cc3Cl)[nH]n2)cc1OC", "No"),
    ("COc1cc(/C=C2\\CCC(C)/C(=C\\c3cc(OC)c(OC)c(OC)c3)C2=O)cc(OC)c1OC (stereo not drawn)", "No"),
    ("C/C(CC(=O)Nc1ccc(Cl)c(Cl)c1)=N/NC(=O)C[N+](C)(C)C", "No"),
    ("COc1cc(/C=C2\\N=C(c3ccccc3)N(c3cc4cc(Sc5ccccc5)ccc4[nH]3)C2=O)cc(OC)c1OC", "No"),
    ("CCOC(=O)C1C(c2ccc([N+](=O)[O-])cc2)NC(c2ccc([N+](=O)[O-])cc2)C(C(=O)OC)S1(=O)=O (stereo not drawn)", "No"),
    ("COc1ccc(-c2c(C(C)=O)c(C)n(C3OC(COC(C)=O)C(OC(C)=O)C(OC(C)=O)C3OC(C)=O)c(=S)c2C#N)cc1 (stereo not drawn)", "No"),
    ("CSc1ncnc2c1ncn2CCC(=O)OC(C)(C)C", "No"),
    ("O=c1c2c(no[n+]2[O-])c2ccccc2n1-c1ccccc1", "No"),
]
